# test-name: Liver microsomal stability assay (human)
# Type: in vitro ADME
# condition-details: Human liver microsomes 0.5 mg/mL, NADPH and UDPGA, 1 µM compound
metric-name: half-life at 1 µM (h)
Give bare numbers, in h.

get_value(item= CC(C)(O)c1cc2nc(C3CCN(CC4CCN(c5cc6c(cc5F)C(=O)N(C5CCC(=O)NC5=O)C6=O)CC4)CC3)cn2cc1NC(=O)c1cccc(C(F)(F)F)n1 (stereo not shown) , readout=half-life at 1 µM) returns 6.68

---

Hi there, I'd appreciate the recorded AUC(0-t) for every entry that follows.
# test-name: In vivo pharmacokinetic study in mice
# condition-details: mouse; male CD1 mice, Oral Administration (20 mg/kg), plasma
# Description: In vivo pharmacokinetic study The pharmacokinetic behaviors of Example 1 and Example 15 in mice were studied using the following experimental protocol to evaluate their pharmacokinetic characteristics. The mice had free access to food and water before the test. Approximately 0.03 mL of venous blood was collected from the dorsal metatarsal vein of each mouse separately after 0.033 h, 0.083 h, 0.25 h, 0.5 h, 1 h, 2 h, 4 h, 8 h, and 24 h since intravenous injection. […]
Numbers only, in ng·h/mL.

CC(C)(O)c1cc2nc(C3CCN(CC4CCN(c5ccc6c(c5)C(=O)N(C5CCC(=O)NC5=O)C6=O)CC4)CC3)cn2cc1NC(=O)c1cccc(C(F)(F)F)n1 (centres unmarked)    626

We next turn to a different compound, shown below.
CC(C)(O)c1cc2nc(C3CCN(CC4CCN(c5cc6c(cc5F)C(=O)N(C5CCC(=O)NC5=O)C6=O)CC4)CC3)cn2cc1NC(=O)c1cccc(C(F)(F)F)n1 (centres unmarked) has a reported AUC(0-t) of 4760
